# TGT: TRβ1 DBD-LBD (TR DL, TRβ1ΔAB);RXRα1 DBD-LBD (RXR DL, RXRα1ΔAB) (human;, UniProt P10828;P19793 102-461;126-462, |)
# Sequence (P10828 102-461, stated change not applied, chain 1 of 2): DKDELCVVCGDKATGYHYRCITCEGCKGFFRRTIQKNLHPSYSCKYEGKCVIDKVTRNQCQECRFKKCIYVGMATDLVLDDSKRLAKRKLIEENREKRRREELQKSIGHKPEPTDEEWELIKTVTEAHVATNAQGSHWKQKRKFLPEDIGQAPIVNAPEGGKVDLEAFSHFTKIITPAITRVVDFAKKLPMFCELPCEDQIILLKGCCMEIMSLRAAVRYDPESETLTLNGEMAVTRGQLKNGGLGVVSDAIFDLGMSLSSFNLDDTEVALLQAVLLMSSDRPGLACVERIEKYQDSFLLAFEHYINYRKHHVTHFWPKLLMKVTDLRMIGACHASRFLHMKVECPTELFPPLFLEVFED
# Sequence (P19793 126-462, stated change not applied, chain 2 of 2): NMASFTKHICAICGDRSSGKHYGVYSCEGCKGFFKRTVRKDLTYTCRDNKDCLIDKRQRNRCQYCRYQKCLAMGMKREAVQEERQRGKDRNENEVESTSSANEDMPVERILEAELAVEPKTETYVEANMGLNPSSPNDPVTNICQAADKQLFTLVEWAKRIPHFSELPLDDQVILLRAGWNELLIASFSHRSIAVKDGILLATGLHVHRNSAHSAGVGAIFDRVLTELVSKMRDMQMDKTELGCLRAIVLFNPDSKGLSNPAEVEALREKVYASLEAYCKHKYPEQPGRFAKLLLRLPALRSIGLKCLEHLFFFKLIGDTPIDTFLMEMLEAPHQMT
# PROCEDURE TEXT: fluorescence anisotropy; T3; Hill n 3.7±1; text refers to previous studies [36],[37] but listed in this paper's Table 1 and Fig. 2; Fluorescence anisotropy: 10 nM DNA, 20 mM Hepes pH 8.0, 50 mM NaCl, 1 mM MgCl2, 3 mM DTT, 5% glycerol, 10°C; agarose gel 1.3% in 0.5x TBE
# SETTINGS: protein: recombinant;recombinant; tags: His (pET28a);His (pET28a); copies: 1;1; label: 5' fluorescein (FITC) on forward strand; blunt
OBSERVABLE: Kd (µM)
Report only the number, with the unit µM understood.

Query :: Would you kindly share the measured Kd for DR4 TRE (dsDNA) DNA 1: AGTTCAGGTCACAGGAGGTCAGAG DNA 2: CTCTGACCTCCTGTGACCTGAACT ?
Result :: 0.0394

Values from paper PMC2935386
